B1: Pre-mRNA-processing factor 40 homolog B, residues 274 to 332; numbered along this chain, Q6NWY9 (parent)
chain: SNREKAKQAFKELLRDKAVPSNASWEQAMKMVVTDPRYSALPKLSEKKQAFNAYKAQRE

Variants of: B1
Test: abundance fitness (aPCA) (normalised: wild type 0, dead -1); higher = more abundant; growth selection in yeast, the domain comes from the species named
Details: Homo sapiens
abundance fitness values by entry
Respond numerically, and do not add a unit to the figure.

Worked cases, abundance fitness given:
mutations=K55Y quantitative_result=-0.644
mutations=Q27A quantitative_result=-0.143
mutations=F10R quantitative_result=-0.332
mutations=N52C quantitative_result=-0.129
mutations=A28W quantitative_result=-0.71
mutations=V19I quantitative_result=-0.462

Fill in: abundance fitness of `A53E` is ___
0.317

Fill in: abundance fitness of `L13N` is ___
-0.482

Fill in: abundance fitness of `A40M` is ___
0.177

Fill in: abundance fitness of `K43L` is ___
-0.196

Fill in: abundance fitness of `F10C` is ___
-0.611
